target-system: T1, human 14-3-3γ, wild-type (human, UniProt P61981 2-247)
T1 construct: 14-3-3 protein gamma, human; d14-3-3γ is the same protein after extensive dialysis into phosphate-free 10 mM Na-Hepes, pH 7.4; also called wt-14-3-3γ; d14-3-3γ; source: E. coli (BL-21, codon+), GST fusion purified on glutathione-Sepharose 4B, cleaved by thrombin, further purified
T1 sequence: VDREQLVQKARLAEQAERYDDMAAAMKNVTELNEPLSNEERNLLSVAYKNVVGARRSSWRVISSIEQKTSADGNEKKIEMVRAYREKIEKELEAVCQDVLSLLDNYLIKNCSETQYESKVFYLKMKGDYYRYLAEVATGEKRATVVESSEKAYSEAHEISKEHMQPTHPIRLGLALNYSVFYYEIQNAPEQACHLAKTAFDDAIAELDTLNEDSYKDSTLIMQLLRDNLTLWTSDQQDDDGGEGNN
experimental-details: SPR; data not shown; Biacore 3000, 25°C; wt-d14-3-3γ immobilised by amine coupling on CM5 (about 5 000 RU); THp-(1-43) injected in 10 mM Na-Hepes, pH 7.4, 0.005% P20; 0 mM salt
measurement-parameters: both partners purified
Where no end group is shown, it is not given here. [ ]: non-standard residue; d: D form. pS = N[C@@H](COP(=O)(O)O)C(=O)O
measured-property: Kd

Task item: State, in one line, measured Kd of MPTPDATTPQAKGFRRAV[pS]ELDAKQAEAIMSPRFIGRRQSLIE (also called phosphopeptide; source: synthetic peptide (CPC Scientific), approx. 90% purity) [THp-(1-43), Ser19-phosphorylated N-terminal peptide of human tyrosine hydroxylase isoform 1]
Reply: ~220 nM
